# System tested: recombinant human cGAS (aa147-522) (Homo sapiens)
# Construct: recombinant human cGAS (aa147-522); His6-SUMO (N, cleaved yes)
# Sequence (Q8N884 147-522): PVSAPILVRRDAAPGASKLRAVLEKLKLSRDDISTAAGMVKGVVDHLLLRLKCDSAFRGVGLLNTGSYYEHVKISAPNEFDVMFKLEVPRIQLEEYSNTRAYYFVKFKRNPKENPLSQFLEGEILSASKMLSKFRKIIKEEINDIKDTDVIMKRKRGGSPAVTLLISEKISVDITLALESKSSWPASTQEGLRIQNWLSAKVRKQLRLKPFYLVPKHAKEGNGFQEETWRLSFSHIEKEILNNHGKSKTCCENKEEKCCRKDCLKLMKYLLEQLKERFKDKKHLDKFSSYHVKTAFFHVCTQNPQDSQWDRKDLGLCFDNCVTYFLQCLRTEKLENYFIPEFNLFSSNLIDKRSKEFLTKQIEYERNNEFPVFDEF
# Run description: In vitro inhibition assay of cGAS activity (KinaseGlo, ATP consumption)
# Condition details: Herring testis DNA, 6.6 μM ATP, 0.1 mM GTP, 37° C. 20 minutes
pIC50: −log10 of the molar value.

[
  {
    "Chemical structure": "COc1ccc(-c2cc(N3CCC[C@H]3COCCC(=O)O)nc3c(Cl)c(Cl)ccc23)cc1",
    "pIC50": "< 4.52"
  },
  {
    "Chemical structure": "O=C(O)CCOC[C@@H]1CCCN1c1cc(-c2ccsc2)c2ccc(Cl)c(Cl)c2n1",
    "pIC50": "< 4.52"
  },
  {
    "Chemical structure": "O=C(O)CCOC[C@@H]1CCN(c2cc(-n3cncn3)c3cc(Br)c(Cl)c(Cl)c3n2)C1",
    "pIC50": "> 5.70"
  },
  {
    "Chemical structure": "O=C(O)CCOC[C@@H]1CCCN1c1cc(-c2cccnc2)c2ccc(Cl)c(Cl)c2n1",
    "pIC50": "< 4.52"
  },
  {
    "Chemical structure": "O=C(O)CCOC[C@@H]1C[C@H](C(F)(F)F)CN1c1cc(-n2cncn2)c2cc(Cl)c(Br)cc2n1",
    "pIC50": "> 5.70"
  },
  {
    "Chemical structure": "O=C(O)CCOC[C@@H]1CCCN1c1cc(-c2cncnc2)c2ccc(Cl)c(Cl)c2n1",
    "pIC50": "> 5.70"
  },
  {
    "Chemical structure": "O=C(O)CCOC[C@@H]1CCCN1c1cc(C2=CNCC2)c2ccc(Cl)c(Cl)c2n1",
    "pIC50": "4.52 to 5.70"
  },
  {
    "Chemical structure": "O=C(O)CCOC[C@@H]1CCCN1c1cc(C2=CCNC2)c2ccc(Cl)c(Cl)c2n1",
    "pIC50": "< 4.52"
  },
  {
    "Chemical structure": "O=C(O)CCOC[C@@H]1CCCN1c1cc(-c2cnsc2)c2ccc(Cl)c(Cl)c2n1",
    "pIC50": "> 5.70"
  },
  {
    "Chemical structure": "C[C@H]1C[C@@H](COCCC(=O)O)N(c2cc(-n3cncn3)c3cc(Cl)c(Br)cc3n2)C1",
    "pIC50": "> 5.70"
  },
  {
    "Chemical structure": "O=C(O)CCOC[C@@H]1CC2(CC2)CN1c1cc(-n2cncn2)c2cc(Br)c(Cl)c(Cl)c2n1",
    "pIC50": "> 5.70"
  },
  {
    "Chemical structure": "O=C(O)CCOC[C@@H]1CCCN1c1cc(-c2cscn2)c2ccc(Cl)c(Cl)c2n1",
    "pIC50": "< 4.52"
  },
  {
    "Chemical structure": "O=C(O)CCOC[C@@H]1CCCN1c1cc(-n2cncn2)c2cc(Br)c(Cl)c(Cl)c2n1",
    "pIC50": "> 5.70"
  },
  {
    "Chemical structure": "COC(=O)[C@@H]1[C@@H](O)CCN1c1cc(-n2cncn2)c2cc(Cl)c(Br)cc2n1",
    "pIC50": "> 5.70"
  },
  {
    "Chemical structure": "O=C(O)CCOC[C@@H]1CCCN1c1cc(-n2cncn2)c2cc(Cl)c(Br)cc2n1",
    "pIC50": "> 5.70"
  },
  {
    "Chemical structure": "O=C(O)CCOC[C@@H]1CCCN1c1cc(-n2cncn2)c2ccc(Cl)c(Cl)c2n1",
    "pIC50": "> 5.70"
  },
  {
    "Chemical structure": "O=C(O)[C@@H]1[C@@H](O)CCN1c1cc(-n2cncn2)c2cc(Cl)c(Br)cc2n1",
    "pIC50": "> 5.70"
  }
]

This collection of values is drawn from patent US12091387B2.
